Listing of recorded IC50 by entry.
Biological target: SOS1:KRAS (G12C) interaction (Homo sapiens (Human), UniProt Q07889)
Sequence (Q07889 564-1049, stated change not applied): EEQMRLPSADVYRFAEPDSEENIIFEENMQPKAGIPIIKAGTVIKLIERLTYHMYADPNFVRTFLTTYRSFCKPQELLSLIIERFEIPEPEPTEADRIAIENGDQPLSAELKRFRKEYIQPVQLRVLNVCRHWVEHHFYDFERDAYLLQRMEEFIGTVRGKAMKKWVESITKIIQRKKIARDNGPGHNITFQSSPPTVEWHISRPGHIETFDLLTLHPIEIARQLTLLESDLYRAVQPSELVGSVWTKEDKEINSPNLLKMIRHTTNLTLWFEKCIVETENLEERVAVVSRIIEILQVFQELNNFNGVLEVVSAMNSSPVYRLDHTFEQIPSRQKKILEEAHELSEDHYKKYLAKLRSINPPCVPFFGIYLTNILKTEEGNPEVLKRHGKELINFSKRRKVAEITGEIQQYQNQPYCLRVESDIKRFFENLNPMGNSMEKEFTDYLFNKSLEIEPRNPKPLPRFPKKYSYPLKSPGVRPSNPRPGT
Assay: SOS1 KRas(G12C) FRET Assay
Settings: 0.5 nM His10-SOS1 (res. 564-1049), 2.5 nM GST-KRAS G12C (res. 1-169), 2 hrs at RT
Description: Inhibition of the SOS 1:KRAS interaction was measured using purified GST-tagged KRAS (res. 1-169, G12C, purified based on Hillig, et al., Proc Natl Acad Sci USA (2019); 116(7):2551-2560) and recombinant His10-SOS1 (res. 564-1049; purified based on Hillig, et al.). […] Plates were incubated at RT for 2 hrs before the FRET signal was measured using Envision at emission 665 nm and 615 nm. […]
A complete answer gives the number followed by the unit.

Cc1c([C@@H](C)NC(=O)c2cn(C3CCOCC3)c(=O)cc2N[C@H]2CCN(C)C3(CC3)C2)cccc1C(F)(F)F (single isomer, unassigned) :: 43.7 nM
Cc1c([C@@H](C)NC(=O)c2cn(C3CCOCC3)c(=O)cc2NC2CCOCC2)cccc1C(F)(F)F :: 553 nM
COc1ccc([C@H](C)NC(=O)c2cn(C3(C(F)F)CC3)c(=O)cc2NC2CCN(C)CC2)c(F)c1C(F)(F)F (single isomer, unassigned) :: 193 nM

Task item: Recall and state the measured IC50 for Cc1c([C@@H](C)NC(=O)c2cn(C3CCOCC3)c(=O)cc2N[C@H]2CCCCN(C)C2)cccc1C(F)(F)F .
Reply: 44 nM

Task item: Please look at this compound and report its IC50: C[C@@H](NC(=O)c1cn([C@@H]2CC2(F)F)c(=O)cc1N[C@H]1[C@@H]2CN(C)C[C@@H]21)c1cccc(C(C)(F)F)c1F (single isomer, unassigned)
Reply: 14 nM

Task item: Let me know recorded IC50 for [2H]C([2H])([2H])N1CCC(Nc2cc(=O)n(C3(C(F)F)CC3)cc2C(=O)N[C@H](C)c2cccc(C(F)F)c2F)CC1 , thanks.
Reply: 15.5 nM

Task item: Read off the recorded IC50 for CN1C[C@@H]2[C@H](C1)[C@H]2Nc1cc(=O)n(C2(C(F)F)CC2)cc1C(=O)N[C@H](c1cccc(C(F)F)c1F)C(F)F
Reply: 1060 nM

Task item: Give the value of IC50 reported for the following: Cc1c([C@@H](C)NC(=O)c2cn(C3CCOCC3)c(=O)cc2N[C@H]2C[C@@H](N(C)C)C2)cccc1C(F)(F)F
Reply: 21.8 nM

Task item: For C[C@@H](NC(=O)c1cn(C23CC(C2)C3)c(=O)cc1N[C@H]1[C@@H]2CN(C)C[C@@H]21)c1cccc(C(F)(F)F)c1F , write its IC50.
Reply: 26.6 nM

Task item: Determine its reported IC50: C[C@@H](NC(=O)c1cn(C23CC(C2)C3)c(=O)cc1N[C@H]1[C@@H]2CN(C)C[C@@H]21)c1cccc(S(F)(F)(F)(F)F)c1F
Reply: 27.8 nM

Task item: Give the measured IC50 for C[C@@H](NC(=O)c1cn(C23CC(C2)C3)c(=O)cc1N[C@H]1[C@@H]2CN(C)C[C@@H]21)c1cccc(C#N)c1Cl (single isomer, unassigned)
Reply: 55.6 nM
